Value source: ChEMBL document CHEMBL4043236

Each entry below carries its reported pIC50.
# Tested on: UniProt:Q99873
# Method summary: Inhibition of recombinant human N-terminal GST-tagged PRMT1 (2 to end residues) expressed in baculovirus infected Sf9 insect cells using biotinylated histone H4 peptide as substrate preincubated for 15 mins followed by substrate/[3H]-SAM addition measured after 60 mins by microbeta liquid scintillation counting analysis
# Sequence (Q99873 whole entry): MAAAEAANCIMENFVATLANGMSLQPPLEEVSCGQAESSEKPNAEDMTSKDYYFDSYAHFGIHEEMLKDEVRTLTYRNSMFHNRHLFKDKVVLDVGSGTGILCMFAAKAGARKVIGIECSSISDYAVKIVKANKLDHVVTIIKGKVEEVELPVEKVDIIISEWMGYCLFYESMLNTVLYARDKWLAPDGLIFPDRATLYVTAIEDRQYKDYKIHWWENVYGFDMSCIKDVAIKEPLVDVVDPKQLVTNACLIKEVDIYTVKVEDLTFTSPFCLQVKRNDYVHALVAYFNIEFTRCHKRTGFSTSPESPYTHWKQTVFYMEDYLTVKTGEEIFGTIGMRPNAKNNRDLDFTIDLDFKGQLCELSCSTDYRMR
Quick note: pIC50 values are minus log10 of concentrations in mol/L.

{"Molecule": "CNCCN(C)Cc1ccc(-c2cccc(C(=O)OC)c2)o1", "pIC50": 4.85}
{"Molecule": "CNCCN(C)Cc1ccc(-c2ccc(C(F)(F)F)cc2)o1", "pIC50": 5.09}
{"Molecule": "CNCCN(C)Cc1ccc(-c2ccc(OC(F)(F)F)cc2)o1", "pIC50": 4.77}
{"Molecule": "CN(CCN)Cc1ccc(-c2cccc(OC(F)(F)F)c2)o1", "pIC50": 4.85}
{"Molecule": "CNCCN(C)Cc1ccc(-c2cccc(C(F)(F)F)c2)o1", "pIC50": 4.85}

Attention now shifts to the item below.
Incoming: Given CNCCN(C)Cc1ccc(-c2cccc(OC(F)(F)F)c2)o1 , state its recorded pIC50.
Outgoing: 4.85

====

# Tested on: Daoy
# Method summary: Cytotoxicity against human DaOY cells assessed as reduction in cell viability after 72 hrs by CellTiter-blue assay
# Format: functional, cell-based
Endpoint label: pIC50
Quick note: pIC50 values are minus log10 of concentrations in mol/L.

# example entries with known answers
{"Molecule": "CNCCN(C)Cc1ccc(-c2cccc(C(F)(F)F)c2)o1", "Tested on": "Daoy", "pIC50": 4.16}
{"Molecule": "CNCCN(C)Cc1ccc(-c2cccc(C(=O)OC)c2)o1", "Tested on": "Daoy", "pIC50": 4.15}
{"Molecule": "CNCCN(C)Cc1ccc(-c2cccc(OC(F)(F)F)c2)o1", "Tested on": "Daoy", "pIC50": 4.63}
{"Molecule": "CNCCN(C)Cc1ccc(-c2ccc(OC(F)(F)F)cc2)o1", "Tested on": "Daoy", "pIC50": 4.61}

Incoming: Given CNCCN(C)Cc1ccc(-c2ccc(C(F)(F)F)cc2)o1 , state its recorded pIC50.
Outgoing: 4.14

====

Each entry below carries its reported inhibition.
# Tested on: Protein arginine N-methyltransferase 1 (Homo sapiens)
# Method summary: Inhibition of recombinant human N-terminal GST-tagged PRMT1 (2 to end residues) expressed in baculovirus infected Sf9 insect cells at 9 uM using biotinylated histone H4 peptide as substrate preincubated for 15 mins followed by substrate/[3H]-SAM addition measured after 60 mins by microbeta liquid scintillation counting analysis
# Sequence (Q99873 whole entry, looked up): as the sequence (Q99873 whole entry) above
Response body: numeric value in %, unit text excluded.

# example entries with known answers
{"Molecule": "CN(CCN)Cc1ccc(-c2cccc(C(F)(F)F)c2)o1", "Measurement unit": "%", "inhibition": 31}
{"Molecule": "COC(=O)c1cccc(-c2ccc(CN(C)CCN)o2)c1", "Measurement unit": "%", "inhibition": 38}
{"Molecule": "CNCCN(C)Cc1ccc(-c2ccc(OC)cc2)o1", "Measurement unit": "%", "inhibition": 38}
{"Molecule": "CNCCN(C)Cc1ccc(-c2ccc(C(F)(F)F)cc2)o1", "Measurement unit": "%", "inhibition": 43}
{"Molecule": "FC(F)(F)c1cccc(Cn2nnnc2N2CCNCC2)c1", "Measurement unit": "%", "inhibition": 1}

Incoming: Given CNCCN(C)c1nnnn1Cc1ccccc1C(F)(F)F , state its recorded inhibition.
Outgoing: 13

Incoming: And CNCCN(C)Cc1ccc(-c2cccc(OC)c2)o1 ?
Outgoing: 37

Incoming: And CNCCN(C)c1nnnn1Cc1cccc(OC(F)(F)F)c1 ?
Outgoing: 12

Incoming: And CN(CCN)Cc1ccc(-c2ccc(OC(F)(F)F)cc2)o1 ?
Outgoing: 25

Incoming: And CNCCN(C)c1nnnn1Cc1ccc(OC(F)(F)F)cc1 ?
Outgoing: 5

Incoming: And CNCCN(C)Cc1ccc(-c2ccc(C#N)cc2)o1 ?
Outgoing: 35

Incoming: And CN(CCN)Cc1ccc(-c2cccc(C#N)c2)o1 ?
Outgoing: 38
